Ref: ChEMBL document CHEMBL3433997

# maps each entry to its inhibition
biological target: Solute carrier family 2, facilitated glucose transporter member 1 (Homo sapiens) (UniProt P11166); assay: ST_JUDE_LEISH: Cytotoxicity at 2uM final concentration against transgenic Leishmania Mexicana promastigotes LmGLUT1 that are glucose transport deficient and complemented with the human glucose transporter GLUT1. Activity is measured by DNA content using SYBR green in vitro; type: functional
Sequence (P11166 whole entry): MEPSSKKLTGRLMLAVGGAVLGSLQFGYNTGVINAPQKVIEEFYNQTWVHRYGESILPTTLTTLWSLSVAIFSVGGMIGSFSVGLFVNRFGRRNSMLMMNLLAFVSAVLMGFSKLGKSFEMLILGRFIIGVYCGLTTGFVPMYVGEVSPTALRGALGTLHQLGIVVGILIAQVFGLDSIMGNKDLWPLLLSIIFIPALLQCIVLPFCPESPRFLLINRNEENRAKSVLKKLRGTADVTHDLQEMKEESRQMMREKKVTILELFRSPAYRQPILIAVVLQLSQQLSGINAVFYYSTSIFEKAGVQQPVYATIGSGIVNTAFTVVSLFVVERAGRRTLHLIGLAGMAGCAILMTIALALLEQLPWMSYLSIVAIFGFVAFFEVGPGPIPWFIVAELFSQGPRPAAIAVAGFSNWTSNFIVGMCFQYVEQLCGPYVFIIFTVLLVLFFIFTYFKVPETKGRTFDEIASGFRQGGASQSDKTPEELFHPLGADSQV

{"columns": ["compound", "scale_unit", "inhibition"],
 "data": [
  ["Cc1onc(-c2ccccc2)c1-c1nc(NC2CCCC(C)C2)no1 (centres undefined)", "%", 2.36],
  ["O=C(Cn1c(CCc2cccc(F)c2F)nc(=O)c2ccccc21)N(CCN1CCCCC1)Cc1ccc(-c2ccc(C(F)(F)F)cc2)cc1", "%", 6.02],
  ["CN1CCCN(Cc2cccc(-c3ccc(NC(=O)c4cccc(Cl)c4)cc3)c2)CC1", "%", 71.1],
  ["COc1nc2c(CCN3CCC(NCc4ccc5c(c4)NCCO5)CC3)c(Cl)cnc2cc1F", "%", 14.1],
  ["COc1ccc(NC(=O)/C=C/c2ccccc2Cl)cc1OCCN1CCC(NCc2cccnc2)CC1", "%", 3.65],
  ["O=C(NCC1CCC(CNCCCc2ccccc2)CC1)c1cc(Cl)cc(Cl)c1 (centres undefined)", "%", 1.46],
  ["COc1ccc2c(NN=Cc3cccc(F)c3)ccnc2c1", "%", 2.99],
  ["O=C1Nc2cccc3c2C1(CCCN1CCC(c2c[nH]c4cc(C(F)(F)F)ccc24)CC1)CCC3 (centres undefined)", "%", -0.49],
  ["Cc1nnc2c(N(C(=O)NCCc3ccccc3)C(=O)NCCc3ccccc3)cc3cc(Cl)ccc3n12", "%", 11.2]
]}
